assay: qHTS for Inhibitors of TGF-b: Cytotox Counterscreen; conditions: HepG2 CAGA-GFP viability, ATP luminescence, 18 h; series mostly up to 46.1 µM
Hit rate of the full screen: of about 410,000 compounds, about 3,100 (0.76%) were called active. Calls come from the whole dose curve; as a rule, active = well fitted cell-killing curve with a large enough effect; inactive = no such curve, though single readings can be large or run the other way. The sample as a whole holds a higher share of actives than the screen did.
Valid outcomes are listed here; reply with one: 1 (yes) (active), 0 (no) (inactive)

molecule=CCc1nc2ccc(C(=O)N(C)CCN(C)C)cn2c1N(CC)CCOC category="0 (no)"
molecule="CC(C)Cn1c(C2CC(=O)N(c3ccccc3Cl)C2)nc2ccccc21 (configuration not stated)" category="0 (no)"
molecule=COc1ccc(C(=O)Nc2ccc3nc(N4CCCCC4)cc(C)c3c2)cc1OC category="0 (no)"

Q: Which result was noted for this molecule in the test: CC(=O)c1ccc(NC(=O)COc2ccccc2-c2nc(-c3ccccc3)no2)cc1
Ans: 0 (no)

Q: Which result was noted for this molecule in the test: CCN1CCN(c2cc(C)c3cc(NC(=O)c4cc(Cl)ccc4OC)ccc3n2)CC1
Ans: 1 (yes)

Q: Which result was noted for this molecule in the test: CCc1nc2ccc(C(=O)Nc3ccc(OC)c(OC)c3)cn2c1N(C)C(=O)c1cccc(OC)c1
Ans: 0 (no)

Q: Which result was noted for this molecule in the test: N=c1n(Cc2ccc(Cl)cc2)c2ccccc2n1CC(O)c1ccco1 (configuration not stated)
Ans: 1 (yes)

---

experiment: qHTS for Inhibitors of TGF-b: Cytotox Counterscreen; conditions: HepG2 CAGA-GFP viability, ATP luminescence, 18 h; series mostly up to 46.1 µM
In all, about 410,000 compounds went through this assay and about 3,100 (0.76%) were called active. The call rests on the fitted dose curve; in most records, active means well fitted cell-killing curve with a large enough effect; inactive means no such curve, though single readings can be large or run the other way. The entries come from a sample that favours actives as a whole.
Valid outcomes are listed here; reply with one: Y for active, N for inactive

compound=COC(=O)c1ccc(-c2nc3cc(NC(C)=O)ccc3o2)cc1 category=N
compound=CN(C(=N)N)c1ccc(/C=C2\C=Cc3ccccc32)cc1 category=N
compound=O=C(COc1ccc(-c2ccccc2)cc1)NN=C1CCCC1 category=N

Q: Which result was noted for this compound in the test: O=C(Cn1nc(Cc2cccnc2)c2ccccc2c1=O)N1CCN(c2ccccc2F)CC1
Ans: N

Q: Which result was noted for this compound in the test: Nc1ccc(Nc2ccccc2)cc1
Ans: Y

Q: Which result was noted for this compound in the test: CNC(=O)[C@]1(C(F)(F)F)C[C@H](CCc2ccccc2)CCCO1
Ans: N

Q: Which result was noted for this compound in the test: Cn1c(=O)c(=O)n(C)c2cc(NC(=O)c3ccccc3Br)ccc21
Ans: N

Q: Which result was noted for this compound in the test: Cc1ccc(Nc2ccccc2N)cc1
Ans: N

Q: Which result was noted for this compound in the test: O=C(CSc1cccc2cccnc12)N/N=C/c1cccnc1
Ans: Y

Q: Which result was noted for this compound in the test: COC(=O)c1sc(-c2ccc(C(C)(C)C)cc2)cc1NC(=O)/C=C/C(=O)O
Ans: Y

Q: Which result was noted for this compound in the test: O=C(NC1CCCCC1)C1CCC(CNS(=O)(=O)c2ccccc2)CC1 (stereo unspecified)
Ans: N

Q: Which result was noted for this compound in the test: O=C(CC1NCCc2ccccc21)Nc1cccc(Cl)c1 (stereo unspecified)
Ans: N

Q: Which result was noted for this compound in the test: Cc1ccc(S(=O)(=O)NCC2CCC(C(=O)N3CCOCC3)CC2)cc1 (stereo unspecified)
Ans: N

Q: Which result was noted for this compound in the test: Cc1cccc(-c2nc3ccc(C(=O)NCCN4CCN(C)CC4)cc3nc2-c2cccc(C)c2)c1
Ans: Y

Q: Which result was noted for this compound in the test: CC(C)(C)c1ccc(C(=O)C[N+]2(C)CCCc3ccccc32)cc1 (stereo unspecified)
Ans: N

Q: Which result was noted for this compound in the test: CCn1c(CC(=O)Nc2ccc(C)cc2)nnc1SCC(=O)Nc1nc(C)cs1
Ans: N

Q: Which result was noted for this compound in the test: Cc1ccc(F)cc1NC(=O)CCSc1nc(-c2ccco2)cc(C(F)(F)F)n1
Ans: N

Q: Which result was noted for this compound in the test: CN(C)C1=C2C=CC=CC2/C(=C2/C=Cc3ccccc32)C=C1 (stereo unspecified)
Ans: N

Q: Which result was noted for this compound in the test: CCn1c(SCC(=O)Nc2nc(C)cs2)nnc1C(C)NC(=O)c1ccccc1 (stereo unspecified)
Ans: N
